# System: 997726-040-R-J2-PDC tumor spheroids, viability;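 also: spheroids exposed to compounds for seven days before readout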
# method: Anticancer human tumor 997726-040-R-J2-PDC patient-derived squamous cell lung carcinoma cell line growth inhibition [PI3K]
# conditionDescription: second compound 3.16 µM; first compound 1 µM; active compounds read low; spheroids with HUVEC and MSC
Quick rule for you: viability, T/C under 30% gets Criterion met, anything else gets Criterion not met.

INSERT INTO measurements (molecule, classification) VALUES
  ('CCN1CCN(Cc2ccc(Nc3ncc(F)c(-c4cc(F)c5nc(C)n(C(C)C)c5c4)n3)nc2)CC1 + CC(Nc1ncnc2nc[nH]c12)c1cc2cccc(Cl)c2c(=O)n1-c1ccccc1', 'Criterion not met'),
  ('Cn1nccc1Nc1nccc(-c2ccn(C(CO)c3ccc(Cl)c(F)c3)c(=O)c2)n1 (stereo not given) + Cc1nc(NC(=O)N2CCCC2C(N)=O)sc1-c1ccnc(C(C)(C)C(F)(F)F)c1', 'Criterion met'),
  ('CC1(C)CCC(Nc2ncc(C(F)(F)F)c(-c3c[nH]c4c(P(C)(C)=O)c(C#N)ccc34)n2)CN1 (stereo not given) + CC(Nc1ncnc2nc[nH]c12)c1cc2cccc(Cl)c2c(=O)n1-c1ccccc1', 'Criterion not met');

Say whether its viability, T/C is strictly beneath 30%. Entry: CCCS(=O)(=O)Nc1ccc(F)c(C(=O)c2c[nH]c3ncc(-c4ccc(Cl)cc4)cc23)c1F + Cc1nc(NC(=O)N2CCCC2C(N)=O)sc1-c1ccnc(C(C)(C)C(F)(F)F)c1
Criterion not met

Say whether its viability, T/C is strictly beneath 30%. Entry: Cn1ncc(Cl)c1-c1cc(C(=O)NC(CN)Cc2cccc(F)c2)sc1Cl (stereo not given) + CC(Nc1ncnc2nc[nH]c12)c1cc2cccc(Cl)c2c(=O)n1-c1ccccc1
Criterion met

The measured values listed here are drawn from PubChem BioAssay AID1963964.
